- assayed.target: MS2 coat protein, dlFG mutant (Escherichia phage MS2, UniProt P03612, del68-81insG)
- protocol.text: 4 mM Mg2+; theophylline 2 mM; RNA-MaP array; 100 mM Tris-HCl pH 7.5, 80 mM KCl, 4 mM MgCl2, 0.1 mg/mL BSA, 1 mM DTT, 0.01 mg/mL yeast tRNA, 0.01% Tween-20; protein 1.5 nM to 3 uM; 37 C (Table S3)
- details: chain copies: 2; label: tethered by stalled RNA polymerase
measurement.kind: Kd (nM)
Provide only the numeric value, understood in nM.

QUERY: Provide Kd value for the following binder: Eterna 7646211 (Same State - Theophylline A) (ssRNA) RNA: CAUACUUUAGUAUGUAAUGUGGACAGUGAUACCAGAUACGAAAGUAUCCCUUGGCAGCACAACAUGAGGAUCACCCAUGUAUUUU
RESULT: 13.4
